The measurements presented in this section are drawn from paper PMC6332448.

target: IMP-1 (Serratia marcescens, UniProt P52699); assay: biochemical; format: biochemical; conditions: 300 μM imipenem, 10 mM HEPES pH 7.5, 25 °C; average of at least two independent assays; read-out: IMP-1 IC50
Sequence (P52699 19-246, looked up, species assumed): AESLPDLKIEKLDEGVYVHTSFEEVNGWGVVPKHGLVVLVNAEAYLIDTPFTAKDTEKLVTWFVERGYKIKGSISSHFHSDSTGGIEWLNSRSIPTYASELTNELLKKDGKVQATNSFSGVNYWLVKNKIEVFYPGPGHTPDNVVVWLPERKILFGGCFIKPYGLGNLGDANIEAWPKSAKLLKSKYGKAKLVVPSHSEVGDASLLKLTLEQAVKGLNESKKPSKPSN
measured attribute: pIC50
One number for each entry, as −log10 of the molar value.

Worked examples, 3 compounds total:
mol smiles	quantitative result
O=C(O)c1ccc(NS(=O)(=O)c2ccccc2)cn1	3.94
O=C(O)c1ncccc1NS(=O)(=O)Cc1cccc(F)c1	3.82
O=C(O)c1ncccc1NS(=O)(=O)Cc1ccc(Cl)cc1	3.83

From here, focus on the item given below.
Prompt line: Value wanted: pIC50 (IMP-1 (Serratia marcescens, UniProt P52699)) of entry CCCCC(=O)Nc1cccnc1C(=O)O
Response line: 3.81

====

target: VIM-2 (Escherichia coli, UniProt Q5U7L7); experiment: biochemical
Assign IC50 to each entry below.

Look at each molecule and report its IC50.
1. O=C(O)c1cnccn1
2. O=C(O)c1ncsc1NS(=O)(=O)c1ccccc1
3. O=C(O)c1cccc(-c2ccoc2)n1
4. O=C(Nc1cccnc1C(=O)O)c1cocn1
5. Cc1ccc(C(=O)Nc2cccnc2C(=O)O)cc1Cl
6. Cn1cnc(C(=O)O)c1
7. O=C(O)c1ncccc1-c1ccc(F)c(F)c1

Response line:
1: > 200 µM; 2: 6.2 µM; 3: > 200 µM; 4: > 200 µM; 5: 93 µM; 6: > 200 µM; 7: > 200 µM

====

molecular target: IMP-1 (Serratia marcescens); test: biochemical; type: biochemical; details: 300 μM imipenem, 10 mM HEPES pH 7.5, 25 °C; average of at least two independent assays; read-out: IMP-1 IC50
pIC50: −log10 of the molar value.
measured attribute: pIC50

Solved entries (count: 3):
compound	pIC50
N#Cc1cccc(S(=O)(=O)Nc2cccnc2C(=O)O)c1 [Compound 33]	< 3.70
COc1cccc(S(=O)(=O)Nc2cccc(C(=O)O)n2)c1 [Compound 45]	< 3.70
CCCCC(=O)Nc1cccc(C(=O)O)n1 [Compound 26]	< 3.70

Provide pIC50 values for the following items, in order.
1. O=C(O)c1ncccc1NS(=O)(=O)Cc1cccc(C(F)(F)F)c1 [Compound 40]
2. CS(=O)(=O)c1ccc(S(=O)(=O)Nc2cccnc2C(=O)O)cc1 [Compound 30]
3. O=C(O)c1ncccc1NS(=O)(=O)Cc1ccccc1Cl [Compound 39]
4. O=C(O)c1ccc(NS(=O)(=O)Cc2ccccc2)cn1 [Compound 58]
5. O=C(O)c1cccc(C(=O)NCc2nccs2)n1 [Compound 48]
6. O=C(Cc1ccc(Cl)c(Cl)c1)Nc1cccc(C(=O)O)n1 [Compound 28]
7. O=C(Cc1cccs1)Nc1ccnc(C(=O)O)c1 [Compound 53]

Response line:
1: < 3.70; 2: < 3.70; 3: 4.68; 4: < 3.70; 5: < 3.70; 6: 4.09; 7: < 3.70

====

molecular target: UniProtKB P52699; experiment: biochemical; format: biochemical
Mark TRUE only when IC50 stays strictly below 3 µM. Values equal to the cut-off are FALSE.

These solved cases illustrate the format of a correct answer.
molecule	qualitative label
O=C(O)c1ncccc1NS(=O)(=O)Cc1ccc(Cl)c(Cl)c1	FALSE
O=C(O)c1ncccc1NS(=O)(=O)Cc1cc(Cl)cc(Cl)c1	FALSE
Cc1ccc(C(=O)Nc2cccnc2C(=O)O)cc1Cl	FALSE
O=C(Cc1cccs1)Nc1cccnc1C(=O)O	FALSE

Prompt line: # check: IC50 < 3 µM for O=C(O)c1ncccc1NS(=O)(=O)Cc1ccccc1
Response line: FALSE

Prompt line: Input O=C(O)c1ncccc1-c1ccncc1
Response line: FALSE

Prompt line: Query N#Cc1cccc(CS(=O)(=O)Nc2scnc2C(=O)O)c1 next
Response line: TRUE

Prompt line: // next record O=C(O)c1ncccc1-c1ccc(F)c(F)c1
Response line: FALSE

Prompt line: Next molecule up: O=C(O)c1ncsc1NS(=O)(=O)Cc1ccccc1Cl
Response line: TRUE

Prompt line: Same again, this time with O=C(O)c1ncsc1NS(=O)(=O)c1cccnc1
Response line: FALSE

Prompt line: What do you have for O=C(O)c1ncsc1NS(=O)(=O)Cc1ccc(Cl)cc1Cl ?
Response line: TRUE

Prompt line: Okay, and O=C(O)c1ncsc1NS(=O)(=O)c1ccccn1 ?
Response line: FALSE
